details: 343.15 K; 101.33 kPa; Liquid
I'd appreciate it if you could supply viscosity values for the items below.
Just the number in mPa·s, nothing appended.

Please report viscosity for the following molecule: CCCCO
0.9306

Complete the entry with viscosity for CCC(C)O (centres undefined)
0.7769

Answer with reported viscosity of CC(C)(C)O
0.7603

Tell me its viscosity given CC(C)CO as the entry.
0.8767

====

Please respond with reported mass density for every item in the list.
details: 328.15 K; 101.33 kPa; Liquid
Could you give me the number in kg/m3? Just the number is fine.

Note down mass density recorded for CC(C)CO
773.732

Answer with the recorded mass density of CC(C)(C)O only.
748.621

Please look at this compound and report its mass density: CCCCO
782.399

In one line, give reported mass density of the entry CCC(C)O (centres undefined) .
775.832

====

details: 338.15 K; 101.33 kPa; Liquid
endpointName: mass density (kg/m3)
Numbers only; they are read as kg/m3.

Look up and report measured mass density for this entry: CCC(C)O (centres undefined)
766.038

Supply mass density value. Item: CCCCO
774.098

Output mass density of CC(C)CO
765.079

Give the measured mass density for CC(C)(C)O
737.19

====

conditions: 328.15 K; 101.33 kPa; Liquid
± gives the expanded uncertainty stated by the source.
endpointName: viscosity

// Input: CC(C)(C)O . Output its viscosity only.
1.196 ± 0.022 mPa·s

Look up viscosity of CCCCO and report it.
1.271 ± 0.023 mPa·s

Let me know recorded viscosity for CCC(C)O (centres undefined) , thanks.
1.151 ± 0.021 mPa·s

Output viscosity of CC(C)CO
1.268 ± 0.023 mPa·s

====

conditions: 333.15 K; 101.33 kPa; Liquid
Numbers after ± are expanded uncertainties.
endpointName: viscosity
Kindly report the value followed by its unit.

Supply viscosity value. Item: CCC(C)O (centres undefined)
1.002 ± 0.019 mPa·s

Name the recorded viscosity of the compound listed here: CCCCO
1.138 ± 0.021 mPa·s

Check the records and state viscosity for CC(C)CO
1.116 ± 0.02 mPa·s

Using known records, supply viscosity for CC(C)(C)O
1.016 ± 0.019 mPa·s

====

settings: 308.15 K; 101.33 kPa; Liquid
± gives the expanded uncertainty stated by the source.
For each record, write down the corresponding viscosity.
Put your answer as a value accompanied by its unit after it.

Note viscosity for the molecule shown: CC(C)(C)O [2-methylpropan-2-ol]
2.69 ± 0.046 mPa·s

Report viscosity, nothing else, for this molecule: CCC(C)O (centres undefined) [butan-2-ol]
2.163 ± 0.037 mPa·s

Give me measured viscosity, please, for this molecule: CC(C)CO [2-methyl-1-propanol]
2.28 ± 0.039 mPa·s

Give me measured viscosity, please, for this molecule: CCCCO [butan-1-ol]
2.025 ± 0.035 mPa·s

====

conditions: 323.15 K; 101.33 kPa; Liquid
Kindly supply the reported mass density values for the records listed here.
Dear colleague, please return just the value in kg/m3, with no unit written.

In one line, give reported mass density of the entry CCC(C)O (centres undefined) .
780.552

Please look at this compound and report its mass density: CC(C)(C)O
754.193

Report measured mass density; entry is CCCCO
786.456

Tell us which mass density value is on record for CC(C)CO
777.932

====

conditions: 313.15 K; 101.33 kPa; Liquid
endpointName: viscosity (mPa·s)
# number only, unit mPa·s dropped from output

Identify measured viscosity corresponding to CC(C)(C)O
2.142

Answer with the recorded viscosity of CC(C)CO only.
1.965

Specify measured viscosity for CCC(C)O (centres undefined) .
1.84

Please give measured viscosity of the following entry: CCCCO
1.795

====

conditions: 318.15 K; 101.33 kPa; Liquid
± gives the expanded uncertainty stated by the source.
For each of the compounds below, state its viscosity.
Please give the number followed by its unit.

Output viscosity of CC(C)CO
1.692 ± 0.03 mPa·s

Report measured viscosity; entry is CCC(C)O (centres undefined)
1.557 ± 0.028 mPa·s

Indicate the recorded viscosity value for this compound: CC(C)(C)O
1.737 ± 0.03 mPa·s

Answer with reported viscosity of CCCCO
1.595 ± 0.028 mPa·s

====

details: 333.15 K; 101.33 kPa; Liquid
endpointName: mass density (kg/m3)
Numbers only; they are read as kg/m3.

Check the records and state mass density for CCC(C)O (centres undefined) [butan-2-ol]
770.993

Could you please provide reported mass density for CCCCO [butan-1-ol] ? Thanks!
778.281

Indicate its recorded mass density; the compound in question is CC(C)(C)O [2-methylpropan-2-ol]
742.954

Report mass density, nothing else, for this compound: CC(C)CO [2-methyl-1-propanol]
769.448
